Where these numbers come from: patent US20250011363A1

- tested target: acetylcholine receptor
- assay explanation: SPR, acetylcholine receptor on CM5 chip, peptide 10 µM
property measured: Binding affinity (RU)

| binder | property measured | result value |
| --- | --- | --- |
| RSICKK [6mer-2-556] | Binding affinity (RU) | 148 |
| RWYRRR [6mer-2-594] | Binding affinity (RU) | 139 |
| RWRCRR [6mer-2-554] | Binding affinity (RU) | 121 |
| KGRLRK [6mer-2-590] | Binding affinity (RU) | 148 |
| KWQQRR [6mer-2-580] | Binding affinity (RU) | 121 |
| RWQRKK [6mer-2-536] | Binding affinity (RU) | 125 |
| KGQLRR [6mer-2-559] | Binding affinity (RU) | 121 |
| KSVCKK [6mer-2-558] | Binding affinity (RU) | 154 |
| RWQTRK [6mer-2-582] | Binding affinity (RU) | 148 |
| RWQYRK [6mer-2-579] | Binding affinity (RU) | 135 |
| RWQQRK [6mer-2-589] | Binding affinity (RU) | 153 |
| RSFTKK [6mer-2-550] | Binding affinity (RU) | 148 |
| KSVTKK [6mer-2-583] | Binding affinity (RU) | 154 |
| RRVLKK [6mer-2-561] | Binding affinity (RU) | 142 |
| KGQCRK [6mer-2-541] | Binding affinity (RU) | 126 |
| RSLQKK [6mer-2-553] | Binding affinity (RU) | 124 |
| KQVYRK [6mer-2-564] | Binding affinity (RU) | 148 |
| RWVLRK [6mer-2-592] | Binding affinity (RU) | 122 |
| RVQQKR [6mer-2-581] | Binding affinity (RU) | 139 |
| KGVSRR [6mer-2-576] | Binding affinity (RU) | 139 |
| KQFCKK [6mer-2-538] | Binding affinity (RU) | 125 |
| KLFCRR [6mer-2-535] | Binding affinity (RU) | 133 |
| KLYYRK [6mer-2-567] | Binding affinity (RU) | 146 |
| KRLTRR [6mer-2-540] | Binding affinity (RU) | 142 |
| KWFYKK [6mer-2-588] | Binding affinity (RU) | 149 |
| RSVLRK [6mer-2-578] | Binding affinity (RU) | 135 |
| RVFTKK [6mer-2-546] | Binding affinity (RU) | 127 |
